- Study Target: Human plasma kallikrein (Homo sapiens, UniProt P03952)
- Construct: purchased Callbiochem (Calbiochem)
- Sequence (P03952 391-638 limits assumed): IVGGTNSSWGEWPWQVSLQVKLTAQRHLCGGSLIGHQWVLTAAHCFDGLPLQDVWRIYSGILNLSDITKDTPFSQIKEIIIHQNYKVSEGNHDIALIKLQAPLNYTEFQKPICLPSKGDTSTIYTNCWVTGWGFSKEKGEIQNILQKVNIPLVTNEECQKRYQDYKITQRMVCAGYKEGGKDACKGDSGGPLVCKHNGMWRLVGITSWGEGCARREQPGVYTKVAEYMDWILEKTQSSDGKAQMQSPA
- Sequence (P03952 20-390 partner limits assumed): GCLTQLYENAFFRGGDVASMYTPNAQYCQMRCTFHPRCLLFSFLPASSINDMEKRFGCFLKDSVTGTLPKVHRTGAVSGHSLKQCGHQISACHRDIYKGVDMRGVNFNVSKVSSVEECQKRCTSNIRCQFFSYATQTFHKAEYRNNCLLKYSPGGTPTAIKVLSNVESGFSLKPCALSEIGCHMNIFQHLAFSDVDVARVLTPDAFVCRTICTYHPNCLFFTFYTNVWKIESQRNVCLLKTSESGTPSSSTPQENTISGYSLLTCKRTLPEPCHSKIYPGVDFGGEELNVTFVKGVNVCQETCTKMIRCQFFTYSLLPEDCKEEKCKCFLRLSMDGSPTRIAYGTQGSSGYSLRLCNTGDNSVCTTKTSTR
- Procedure Text: Determination of the inhibition constant Ki for plasma kallikrein (chromogenic substrate S-2302, Dixon plot)
- Format: biochemical
- Protocol Conditions: substrate S-2302, 37° C.
Binarize Ki at 7 nM; below is True, at or above is False.

Compound: CCOc1ccc(C[C@@H](N)C(=O)N[C@H](C(=O)NC2CCN(C(=N)N)CC2)[C@H](OC)c2ccccc2)cc1
Cat: False
--
Compound: CCOc1ccc(C[C@@H](NC(C)=O)C(=O)N[C@@H](Cc2ccccc2)C(=O)NC2CCN(C(=N)N)CC2)cc1
Cat: False
--
Compound: CCOc1ccc2c(c1)CN[C@@H](C(=O)N[C@@H](Cc1ccccc1)C(=O)NC1CCN(C(=N)N)CC1)C2
Cat: False
--
Compound: N=C(N)N1CCC(NC(=O)[C@H](Cc2ccccc2)NC(=O)[C@@H](CC2CCC3CCCCC3C2)NCC(=O)O)CC1 (stereo partly shown)
Cat: True
--
Compound: N=C(N)N1CCC(NC(=O)[C@H](Cc2ccccc2)NC(=O)[C@H](N)Cc2ccc(OCc3ccccc3)cc2)CC1
Cat: True
--
Compound: CCOc1ccc(C[C@@H](N)C(=O)N[C@H](C(=O)NC2CCN(C(=N)N)CC2)[C@H](O)c2ccccc2)cc1.O=C(O)C(F)(F)F
Cat: True
